- targetUnderTest: HLA-B*0702 (human)
- assayText: competition with 125I-labelled standard peptide for purified HLA, gel filtration
propertyMeasured: binding affinity ratio (IC50 of standard peptide / IC50 of test peptide)
Just the number, please, no unit after it.

So, DPTRRPYKL (modifications not checked) [HPV18 E6 peptide … (position 6, 9 amino acids)] ? Its binding affinity ratio (IC50 of standard peptide / IC50 of test peptide) was 0.0001

Entry IPHAACHKCI (modifications not checked) [HPV18 E6 peptide … (position 60, 10 amino acids)] , binding affinity ratio (IC50 of standard peptide / IC50 of test peptide) reported as 0.0065

binding affinity ratio (IC50 of standard peptide / IC50 of test peptide) reported for this binder PPKLRSTAA (modifications not checked) [HPV31 E1 289 peptide … (B07 supermotif peptide)] : 0.0014

Record summary for NPAEKLRHL (modifications not checked) [HPV18 E6 peptide … (position 113, 9 amino acids)] : reported binding affinity ratio (IC50 of standard peptide / IC50 of test peptide) = 0.011

The value of binding affinity ratio (IC50 of standard peptide / IC50 of test peptide) measured for the binder EPQRHTMLCM (modifications not checked) [HPV18 E7 peptide … (position 55, 10 amino acids)] turned out to be 0.0026

Just so you know, measured binding affinity ratio (IC50 of standard peptide / IC50 of test peptide) for GPKATLQDIV (modifications not checked) [HPV18 E7 peptide … (position 3, 10 amino acids)] came out at 0.0001

The binder KPLNPAEKL (modifications not checked) [HPV18 E6 peptide … (position 110, 9 amino acids)] showed binding affinity ratio (IC50 of standard peptide / IC50 of test peptide) equal to 0.035

Sure, the documented binding affinity ratio (IC50 of standard peptide / IC50 of test peptide) for EPQNEIPVDL (modifications not checked) [HPV18 E7 peptide … (position 16, 10 amino acids)] is 0.0001
